TESTED_SYSTEM: Cdk9/cyclinT1 (Homo sapiens, UniProt P50750)
Sequence (P50750 whole entry): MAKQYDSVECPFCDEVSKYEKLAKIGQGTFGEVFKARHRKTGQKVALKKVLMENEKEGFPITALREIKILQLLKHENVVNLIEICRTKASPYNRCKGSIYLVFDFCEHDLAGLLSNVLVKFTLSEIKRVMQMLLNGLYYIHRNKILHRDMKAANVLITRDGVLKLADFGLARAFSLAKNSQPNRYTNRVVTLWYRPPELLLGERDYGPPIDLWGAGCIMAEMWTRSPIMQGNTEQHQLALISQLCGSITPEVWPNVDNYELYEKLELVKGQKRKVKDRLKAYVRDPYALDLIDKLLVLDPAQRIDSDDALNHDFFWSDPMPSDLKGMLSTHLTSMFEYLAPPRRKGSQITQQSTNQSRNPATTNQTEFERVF
Sequence (O60563 whole entry partner): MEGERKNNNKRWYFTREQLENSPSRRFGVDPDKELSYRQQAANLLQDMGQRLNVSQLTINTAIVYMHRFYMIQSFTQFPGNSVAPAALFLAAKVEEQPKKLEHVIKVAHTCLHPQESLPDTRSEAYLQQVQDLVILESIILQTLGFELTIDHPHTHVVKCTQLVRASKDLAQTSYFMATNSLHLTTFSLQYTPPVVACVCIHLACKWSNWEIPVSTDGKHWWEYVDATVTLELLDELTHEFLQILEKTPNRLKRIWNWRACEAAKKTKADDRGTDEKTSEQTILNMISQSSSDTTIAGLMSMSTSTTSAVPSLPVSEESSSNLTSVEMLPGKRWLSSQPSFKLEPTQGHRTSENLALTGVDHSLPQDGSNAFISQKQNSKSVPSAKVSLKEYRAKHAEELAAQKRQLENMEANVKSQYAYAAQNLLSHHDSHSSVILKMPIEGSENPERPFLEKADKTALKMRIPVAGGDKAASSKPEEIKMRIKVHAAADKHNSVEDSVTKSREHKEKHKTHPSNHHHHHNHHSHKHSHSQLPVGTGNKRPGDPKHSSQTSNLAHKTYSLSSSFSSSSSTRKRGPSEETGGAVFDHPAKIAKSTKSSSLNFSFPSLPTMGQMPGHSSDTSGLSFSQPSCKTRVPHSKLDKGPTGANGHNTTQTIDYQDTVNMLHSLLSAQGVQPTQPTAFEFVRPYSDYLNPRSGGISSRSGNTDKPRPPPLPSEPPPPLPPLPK
MEASUREMENT_PROTOCOL: Cdk9/cyclinT1 kinase assay (IMAP or Alpha Screen protocol)
pIC50: −log10 of the molar value.
pIC50 values for the molecules below.
MEASURE: pIC50

INSERT INTO results (molecule, measure, value_prefix, readout_value) VALUES
  ('O=C(Nc1cc(-c2cc(NCC3CCOCC3)ccc2F)c(Cl)cn1)[C@@H]1CCCNC1', 'pIC50', '>', 8.10),
  ('O=C(Nc1cc(-c2ccc(Cl)c(NCC3CCOCC3)c2)c(Cl)cn1)[C@@H]1CCCNC1', 'pIC50', '>', 8.10),
  ('O=C(Nc1cc(-c2cccc(NCC3CCOCC3)c2)c(Cl)cn1)[C@H]1CCCNC1', 'pIC50', '=', 7.64),
  ('O=C(Nc1cc(-c2cccc(OCc3cccc(F)c3)c2)c(Cl)cn1)[C@@H]1CCCNC1', 'pIC50', '>', 8.10),
  ('CC(C)Oc1ccc(F)cc1-c1cc(NC(=O)[C@@H]2CCCNC2)ncc1Cl', 'pIC50', '=', 8.70),
  ('O=C(Nc1cc(-c2cc(F)cc(NCC3CCOCC3)c2)c(Cl)cn1)C1CNCCO1 (stereo not drawn)', 'pIC50', '>', 8.10),
  ('O=C(Nc1cc(-c2cc(F)cc(NCC3CCOCC3)c2)c(Cl)cn1)[C@@H]1CCCNC1', 'pIC50', '>', 8.10),
  ('O=C(Nc1cc(-c2cccc(F)c2)c(Cl)cn1)[C@@H]1CCCNC1', 'pIC50', '=', 8.00),
  ('O=C(Nc1cc(-c2cc(F)cc(NCC3CCOCC3)c2)c(Cl)cn1)[C@H]1CCCNC1', 'pIC50', '=', 7.96),
  ('O=C(Nc1cc(-c2cccc(NCC3CCOCC3)c2)c(Cl)cn1)[C@@H]1CCCNC1', 'pIC50', '>', 8.10),
  ('CC(C)(C)OC(=O)N1CCC[C@@H](C(=O)Nc2cc(-c3cc(F)cc(NCC4CCOCC4)c3)c(Cl)cn2)C1', 'pIC50', '=', 7.96),
  ('O=C(Nc1cc(-c2cc(NCC3CCOCC3)ccc2F)c(Cl)cn1)[C@H]1CNCCO1', 'pIC50', '=', 7.80),
  ('O=C(Nc1cc(-c2ccccc2)c(Cl)cn1)[C@@H]1CCCNC1', 'pIC50', '=', 7.70),
  ('COc1ccc(F)cc1-c1cc(NC(=O)[C@@H]2CCCNC2)ncc1Cl', 'pIC50', '>', 8.10),
  ('COc1ccccc1-c1cc(NC(=O)[C@@H]2CCCNC2)ncc1Cl', 'pIC50', '>', 8.10);
